So I've got a bunch of molecules here, and I need their melting point values.
Numeric answer only, unit °C assumed.

Find the measured melting point of Cc1ccc(-c2cn3ccc(Cl)cc3n2)cc1C [Example 1] and report it.
144

Find the measured melting point of COc1ccn2cc(-c3ccc(C)c(C)c3)nc2c1 [Example 4] and report it.
175

Find the measured melting point of COc1ccc(-c2cn3ccc(C)cc3n2)cc1OC [Example 2] and report it.
163

Find the measured melting point of COc1ccn2cc(-c3ccc(OC)c(OC)c3)nc2c1 [Example 5] and report it.
142

====

# TARGET: rat mGlu 5a receptor (Rattus norvegicus)
# Sequence (P31424 21-1171 isoform P31424-2 limits assumed): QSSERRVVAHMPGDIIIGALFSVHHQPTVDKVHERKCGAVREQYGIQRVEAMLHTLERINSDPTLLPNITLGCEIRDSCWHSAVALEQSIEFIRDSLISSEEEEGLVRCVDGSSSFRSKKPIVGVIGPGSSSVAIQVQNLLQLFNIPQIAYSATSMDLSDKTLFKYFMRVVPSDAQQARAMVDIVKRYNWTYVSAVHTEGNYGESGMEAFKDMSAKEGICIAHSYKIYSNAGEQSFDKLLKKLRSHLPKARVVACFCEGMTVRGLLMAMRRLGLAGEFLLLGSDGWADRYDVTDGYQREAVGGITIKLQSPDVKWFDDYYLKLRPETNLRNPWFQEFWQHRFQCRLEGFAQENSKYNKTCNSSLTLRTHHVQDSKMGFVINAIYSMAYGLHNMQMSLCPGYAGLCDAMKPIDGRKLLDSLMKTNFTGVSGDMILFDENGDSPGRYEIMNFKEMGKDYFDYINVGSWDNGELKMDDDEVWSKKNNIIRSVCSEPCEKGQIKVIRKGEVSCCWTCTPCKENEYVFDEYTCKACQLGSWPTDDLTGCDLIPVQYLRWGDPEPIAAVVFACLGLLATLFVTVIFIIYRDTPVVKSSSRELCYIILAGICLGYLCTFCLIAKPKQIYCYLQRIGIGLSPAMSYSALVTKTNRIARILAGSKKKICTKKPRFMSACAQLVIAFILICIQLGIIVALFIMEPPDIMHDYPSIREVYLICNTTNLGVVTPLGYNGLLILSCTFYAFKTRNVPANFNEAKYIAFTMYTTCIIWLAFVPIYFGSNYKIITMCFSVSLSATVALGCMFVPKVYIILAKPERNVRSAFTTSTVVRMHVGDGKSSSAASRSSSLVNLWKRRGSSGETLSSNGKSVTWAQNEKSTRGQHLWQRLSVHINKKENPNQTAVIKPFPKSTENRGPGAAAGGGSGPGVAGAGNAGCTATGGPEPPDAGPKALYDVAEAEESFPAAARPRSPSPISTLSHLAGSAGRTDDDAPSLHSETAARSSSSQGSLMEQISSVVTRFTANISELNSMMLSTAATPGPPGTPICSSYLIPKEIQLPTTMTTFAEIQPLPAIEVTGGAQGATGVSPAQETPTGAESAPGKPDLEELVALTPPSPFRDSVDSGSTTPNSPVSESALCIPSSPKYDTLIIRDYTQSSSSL
# PROCEDURE_TEXT: [Ca2+]i FLIPR antagonist assay on mGlu 5a transfected EBNA cells against 10 μM glutamate
# DETAILS: rat mGlu 5a transiently transfected EBNA cells; against 10 μM glutamate as agonist
# Description: The pharmacological activity of the compounds of the present invention was tested using the following methods: cDNA encoding rat mGlu 5a receptor was transiently transfected into EBNA cells using a procedure described by E.-J. Schlaeger and K. Christensen (Transient gene expression in mammalian cells grown in serum-free suspension culture, Cytotechnology 1999, 30, 71-83). […]
Field 'label' (enum: satisfied / not satisfied). Set to satisfied when IC50 is strictly under 2000 nM; else not satisfied.

Please check: IC50 for Cc1ccc(-c2cn3ccccc3n2)cc1 , strictly under 2000 nM or not?
not satisfied

Please check: IC50 for c1ccn2cc(-c3ccc4c(c3)CCO4)nc2c1 , strictly under 2000 nM or not?
not satisfied

Please check: IC50 for COc1ccc(-c2cn3ccc(C)cc3n2)cc1OC , strictly under 2000 nM or not?
satisfied

Please check: IC50 for Cc1ccc(-c2cn3cc(C)ccc3n2)cc1 , strictly under 2000 nM or not?
not satisfied

Please check: IC50 for c1ccn2cc(-c3ccc4c(c3)CCC4)nc2c1 [Example 10, 2-Indan-5-yl-imidazo[1,2-a]pyridine] , strictly under 2000 nM or not?
satisfied

Please check: IC50 for Cc1ccn2cc(-c3ccccc3)nc2c1 [Example 22, 7-Methyl-2-phenyl-imidazo[1,2-a]pyridine] , strictly under 2000 nM or not?
not satisfied

Please check: IC50 for Ic1cccc(-c2cn3ccccc3n2)c1 [Example 12, 2-(3-Iodo-phenyl)-imidazo[1,2-a]pyridine] , strictly under 2000 nM or not?
satisfied

Please check: IC50 for c1ccc2oc(-c3cn4ccccc4n3)cc2c1 [Example 15, 2-Benzofuran-2-yl-imidazo[1,2-a]pyridine] , strictly under 2000 nM or not?
satisfied

Please check: IC50 for COc1ccn2cc(-c3ccc(C)c(C)c3)nc2c1 , strictly under 2000 nM or not?
satisfied

Please check: IC50 for COc1cccc(-c2cn3ccccc3n2)c1 , strictly under 2000 nM or not?
satisfied

Please check: IC50 for COc1cc(-c2cn3ccccc3n2)ccc1OCc1ccccc1 , strictly under 2000 nM or not?
satisfied

Please check: IC50 for Clc1cccc(-c2cn3ccccc3n2)c1 , strictly under 2000 nM or not?
satisfied

Please check: IC50 for Brc1cccc(-c2cn3ccccc3n2)c1 , strictly under 2000 nM or not?
satisfied

Please check: IC50 for O=[N+]([O-])c1cccc(-c2cn3ccccc3n2)c1 , strictly under 2000 nM or not?
not satisfied

Please check: IC50 for Cc1cc(-c2cn3ccccc3n2)c(C)s1 , strictly under 2000 nM or not?
satisfied

Please check: IC50 for CCc1ccn2cc(-c3ccc(C)c(C)c3)nc2c1 , strictly under 2000 nM or not?
not satisfied

Please check: IC50 for COc1ccc(-c2cn3cc(C)ccc3n2)cc1OC , strictly under 2000 nM or not?
not satisfied

Please check: IC50 for COc1ccn2cc(-c3ccc(OC)c(OC)c3)nc2c1 , strictly under 2000 nM or not?
not satisfied
